Reference for the values: PubChem BioAssay AID504313

Target: X-box-binding protein 1 (Homo sapiens) (UniProt P17861)
Assay: XBP1 reporter suppression in cells – counter-screen, dose response (AID 504313);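 further: CHO cells carrying an XBP1 reporter stimulated with tunicamycin; potency is for inhibition of the tunicamycin-induced reporter signal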
Conditions: XBP1 reporter cell assay, percent of control
Activity calls are given as the source filed them. How the calls were made is not given here.
Outcome codes: active, inactive

>  <compound>
Cc1cccc(C)c1NC(=O)COc1ccccc1C(=O)Nc1ccc(Br)cn1

>  <measuredOn>
X-box-binding protein 1 (Homo sapiens) (UniProt P17861)

>  <qualitativeLabel>
inactive

$$$$
>  <compound>
CCc1ccc(C(=O)/C=C/c2ccc([N+](=O)[O-])o2)cc1

>  <measuredOn>
X-box-binding protein 1 (Homo sapiens) (UniProt P17861)

>  <qualitativeLabel>
inactive

$$$$
>  <compound>
Cc1nn(-c2ccccc2Cl)c(Cl)c1/C=N/Nc1nc2ccccc2s1

>  <measuredOn>
X-box-binding protein 1 (Homo sapiens) (UniProt P17861)

>  <qualitativeLabel>
active

$$$$
>  <compound>
COC(=O)C(O)(c1ccc(NC(=S)NC(=O)c2ccc(Cl)cc2Cl)c(C)c1)C(F)(F)F (centres undefined)

>  <measuredOn>
X-box-binding protein 1 (Homo sapiens) (UniProt P17861)

>  <qualitativeLabel>
inactive

$$$$
>  <compound>
CC1=CC2/C=C(\C)CCC(O)C(O)/C=C/C(=O)C23C(=O)NC(CC(C)C)C3C1C (centres undefined)

>  <measuredOn>
X-box-binding protein 1 (Homo sapiens) (UniProt P17861)

>  <qualitativeLabel>
inactive

$$$$
>  <compound>
CCOC(=O)N=Nc1c2ccccc2c2nc3no[nH]c3nc12

>  <measuredOn>
X-box-binding protein 1 (Homo sapiens) (UniProt P17861)

>  <qualitativeLabel>
inactive

$$$$
>  <compound>
COc1cccc(-c2nnc(NC(=O)c3ccc(S(=O)(=O)N(CC(C)C)CC(C)C)cc3)o2)c1

>  <measuredOn>
X-box-binding protein 1 (Homo sapiens) (UniProt P17861)

>  <qualitativeLabel>
inactive

$$$$
>  <compound>
COCCn1cnc2c(c1=O)c1nc3ccccc3nc1n2/N=C/c1cccc(OC)c1

>  <measuredOn>
X-box-binding protein 1 (Homo sapiens) (UniProt P17861)

>  <qualitativeLabel>
inactive

$$$$
>  <compound>
Cc1ccc(OCC(=O)N2N=C(C(F)(F)F)CC2(O)C(C)(C)C)cc1C (centres undefined)

>  <measuredOn>
X-box-binding protein 1 (Homo sapiens) (UniProt P17861)

>  <qualitativeLabel>
inactive

$$$$

---

Molecular target: X-box-binding protein 1 (Homo sapiens)
Assay: XBP1 reporter suppression in cells – counter-screen, dose response (AID 504313);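 further: CHO cells carrying an XBP1 reporter stimulated with tunicamycin; potency is for inhibition of the tunicamycin-induced reporter signal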
Details: XBP1 reporter cell assay, percent of control
Activity calls are given as the source filed them. How the calls were made is not given here.
Outcome codes: active, inactive

>  <compound>
C=C1C(=O)C=C2CN(C(=O)c3ccccc3)[C@@](Cc3ccc(F)cc3)(C(=O)OC)[C@@H]12

>  <qualitativeLabel>
active

$$$$
>  <compound>
Cc1nc(Nc2ccc(F)cc2)[nH]c(=O)c1CCC(C)C

>  <qualitativeLabel>
inactive

$$$$
>  <compound>
O=C(Nc1ccc([N+](=O)[O-])cc1)Nc1ccc(OC(F)F)c(Cl)c1

>  <qualitativeLabel>
inactive

$$$$
>  <compound>
Cc1ccc(C2(c3ccc(C)cc3)CC2C(=O)Nc2ccc([N+](=O)[O-])cc2O)cc1 (stereo unspecified)

>  <qualitativeLabel>
inactive

$$$$
>  <compound>
O=C(CCl)Nc1cccc(-c2cnc3ccccc3n2)c1

>  <qualitativeLabel>
inactive

$$$$
>  <compound>
N#Cc1c(N)nc(SCC(=O)C23CC4CC(CC(C4)C2)C3)c(C#N)c1-c1ccc(Cl)cc1

>  <qualitativeLabel>
inactive

$$$$
>  <compound>
COc1ccccc1NC(=O)c1c(Nc2ccccc2C)sc(C(=O)Nc2cccc(Cl)c2)c1N

>  <qualitativeLabel>
inactive

$$$$
>  <compound>
S=C(NCCc1ccc(Cl)cc1)Nc1ccc(Cl)cc1Cl

>  <qualitativeLabel>
inactive

$$$$
>  <compound>
CCOC(=O)/C=C/S(=O)(=O)c1ccc(NC(C)=O)cc1

>  <qualitativeLabel>
inactive

$$$$
>  <compound>
O=C(CCl)Nc1ccc(Sc2ccc(NC(=O)CCl)cc2)cc1

>  <qualitativeLabel>
active

$$$$
>  <compound>
Cc1cccc(/C=N/Nc2ccc3ccccc3n2)c1

>  <qualitativeLabel>
inactive

$$$$
>  <compound>
Cc1ccc(Cl)cc1NC1=C/C(=N\S(=O)(=O)c2cccs2)c2ccccc2C1=O

>  <qualitativeLabel>
inactive

$$$$
>  <compound>
CCCCc1nc(NCCN)c(C#N)c2c1CSC(C)(C)C2

>  <qualitativeLabel>
inactive

$$$$
>  <compound>
CCNc1nc(Oc2c(Cl)cccc2Cl)cc(C(F)(F)F)n1

>  <qualitativeLabel>
inactive

$$$$
>  <compound>
CC(C)Oc1ccc(CNC(=O)CC(c2ccccc2)c2cc(Cl)ccc2O)cc1 (stereo unspecified)

>  <qualitativeLabel>
inactive

$$$$
>  <compound>
Cc1ccc(-c2nnc(-c3ccc(NC(=O)Cc4cccs4)cc3)o2)cc1

>  <qualitativeLabel>
inactive

$$$$
